I'd appreciate it if you could supply recovery of intact probe DNA values for the items below.
molecular target: OleD (Streptomyces antibioticus, UniProt Q53685, P55A/R82V/R83E/T84P); construct: made in house; host or cells: PURExpress In Vitro Protein Synthesis Kit (NEB E6800L), cell-free transcription/translation, linear DNA with T7 promoter; experiment: qPCR DLEnCA, cell-free transcription/translation-derived OleD; format: biochemical; conditions: OleD DNA 5 nM, chemical 1 mM, UDP-Glc 2 μM, probe 0.2 nM; low recovery = substrate glucosylated
Sequence (Q53685 other isoform, or with tags, fused parts or gaps P55A/R82V/R83E/T84P): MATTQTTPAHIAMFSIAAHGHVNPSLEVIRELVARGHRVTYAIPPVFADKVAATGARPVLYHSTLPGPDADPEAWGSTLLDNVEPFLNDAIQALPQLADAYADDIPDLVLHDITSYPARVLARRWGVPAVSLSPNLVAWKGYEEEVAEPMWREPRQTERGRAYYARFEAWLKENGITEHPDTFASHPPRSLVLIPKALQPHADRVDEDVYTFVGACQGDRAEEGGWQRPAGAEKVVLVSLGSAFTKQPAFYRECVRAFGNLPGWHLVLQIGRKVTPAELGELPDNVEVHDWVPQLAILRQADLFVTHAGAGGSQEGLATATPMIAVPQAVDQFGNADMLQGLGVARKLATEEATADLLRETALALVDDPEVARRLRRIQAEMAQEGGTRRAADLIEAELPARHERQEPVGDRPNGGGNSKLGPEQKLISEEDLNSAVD
Numbers only; they are read as %.

Query: recovery of intact probe DNA; subject: O=C(O)Cc1cc(=O)oc2cc(O)ccc12 [IV, 7-hydroxycoumarin-4-acetic acid]
82

Also check O=c1c(O)c(-c2ccc(O)cc2)oc2cc(O)cc(O)c12 [I, kaempferol]
27

Also check O=c1cc(-c2ccccc2)oc2cc(O)ccc12 [IX, 7-hydroxyflavone]
39

Also check O=C(O)c1cc2ccc(O)cc2oc1=O [V, 7-hydroxycoumarin-3-carboxylic acid]
97

Also check O=c1cc(-c2ccc(O)cc2)oc2cc(O)cc(O)c12 [II, apigenin]
42

Also check Cc1cc(=O)oc2cc(O)ccc12 [III, 4-methylumbelliferone]
60

Also check O=c1c(O)c(-c2ccccc2)oc2ccccc12 [VI, 3-hydroxyflavone]
42
